Examples of compounds with documented normalised response follow.
System: CAL-51
Experiment: normalised response (% of control), CellTiter-Glo; higher = more viable cells (100 = DMSO, 0 = benzethonium chloride kill control)
Conditions: incubation time: 72 h
Numeric answer only, unit % assumed.

COMPOUND	QUANTITY	SCALE UNIT	OBS VALUE
CN1CCN(c2ccc3nc(-c4c(N)c5c(F)cccc5[nH]c4=O)[nH]c3c2)CC1 [Dovitinib] (1 nM)	normalised response	%	106

Could you now consider this next compound?
stdin: Item under review: C#Cc1cccc(Nc2ncnc3cc(OC)c(OCCCCCCC(=O)NO)cc23)c1 [CUDC-101] (1000 nM) . Reported normalised response?
stdout: 68.4

* * *

System: Hs578T
Details: 72 h
Criterion met if EC50, CellTiter-Glo is below 4000 nM. Criterion not met if not; exact matches included in Criterion not met.

STRUCTURE SMILES STRING	GROUP
C[C@@]1(C(=O)Nc2ccc(F)nc2)CCCN1c1nc(Nc2cc(C3CC3)n[nH]2)c2cccn2n1	Criterion not met

Would you kindly look at the next entry?
stdin: Please let me know if CN(c1ccccc1CNc1nc(Nc2ccc3c(c2)CC(=O)N3)ncc1C(F)(F)F)S(C)(=O)=O shows EC50, CellTiter-Glo below 4000 nM.
stdout: Criterion not met

* * *

Test system: BT-549
Assay: drug sensitivity score (DSS), CellTox Green (DSS (AUC-based score)); higher = stronger drug effect (viability inhibition or cytotoxicity); extreme values may be limits of the assay
Details: incubation time: 72 h
Examples of molecules with documented drug sensitivity score follow.
Please state the value as a number alone, without comment.

Reference set (10 entries):
MOLECULE	SYSTEM	QUANTITY	OBS VALUE
COC1=C2C[C@@H](C)C[C@H](OC)[C@H](O)[C@@H](C)/C=C(\C)[C@H](OC(N)=O)[C@@H](OC)/C=C\C=C(/C)C(=O)NC(=CC1=O)C2=O [Geldanamycin]	BT-549	drug sensitivity score	0
COc1ccc(C2=N[C@@H](c3ccc(Cl)cc3)[C@@H](c3ccc(Cl)cc3)N2C(=O)N2CCNC(=O)C2)c(OC(C)C)c1 [Nutlin-3]	BT-549	drug sensitivity score	0
CC(=O)O[C@H]1C(=O)[C@@]2(C)[C@H]([C@H](OC(=O)c3ccccc3)[C@]3(O)C[C@H](OC(=O)[C@H](O)[C@@H](NC(=O)c4ccccc4)c4ccccc4)C(C)=C1C3(C)C)[C@]1(OC(C)=O)CO[C@@H]1C[C@@H]2O [Paclitaxel]	BT-549	drug sensitivity score	9.38
CN(c1ccccc1CNc1nc(Nc2ccc3c(c2)CC(=O)N3)ncc1C(F)(F)F)S(C)(=O)=O	BT-549	drug sensitivity score	0.974
CC(C)C[C@H](NC(=O)[C@H](Cc1ccccc1)NC(=O)c1cnccn1)B(O)O [Bortezomib]	BT-549	drug sensitivity score	6.42
CC(C)(C)c1cc(NC(=O)Nc2ccc(-c3cn4c(n3)sc3cc(OCCN5CCOCC5)ccc34)cc2)no1 [Quizartinib]	BT-549	drug sensitivity score	0
COC1=CC(c2cc3ccccc3[nH]2)=N/C1=C\c1[nH]c(C)cc1C [Obatoclax]	BT-549	drug sensitivity score	0
COc1cc(Nc2ncc(F)c(Nc3ccc4c(n3)NC(=O)C(C)(C)O4)n2)cc(OC)c1OC [Tamatinib]	BT-549	drug sensitivity score	0
CS(=O)(=O)CCNCc1ccc(-c2ccc3ncnc(Nc4ccc(OCc5cccc(F)c5)c(Cl)c4)c3c2)o1 [Lapatinib]	BT-549	drug sensitivity score	0
O=c1[nH]cc(F)c(=O)[nH]1 [Fluorouracil]	BT-549	drug sensitivity score	0

Could you now consider this next molecule?
stdin: Item under review: Cc1cc(C(C)Nc2ccccc2)c2nc(N3CCOCC3)cc(=O)n2c1 (stereo unspecified) [TGX-221] . Reported drug sensitivity score?
stdout: 0

* * *

Tested on: MDA-MB-453
Assay: normalised viability (% of control), CellTiter-Blue; higher = more viable cells (about 100 = DMSO control)
Conditions: 100 nM; incubation time: 72 h
QUANTITY: normalised viability (%)
Numeric answer only, unit % assumed.

MOLECULE	QUANTITY	OBS VALUE
c1ccc(C2CN3CCSC3=N2)cc1 (centres undefined) [Tetramisole]	normalised viability	98.5
CN1CCN(c2ccc3nc(-c4c(N)c5c(F)cccc5[nH]c4=O)[nH]c3c2)CC1 [Dovitinib]	normalised viability	84
COc1cc(Nc2ncc(F)c(Nc3ccc4c(n3)NC(=O)C(C)(C)O4)n2)cc(OC)c1OC [R406]	normalised viability	108

Could you now consider this next molecule?
stdin: Item under review: COc1ccc(C2=N[C@@H](c3ccc(Cl)cc3)[C@@H](c3ccc(Cl)cc3)N2C(=O)N2CCNC(=O)C2)c(OC(C)C)c1 [Nutlin-3] . Reported normalised viability?
stdout: 99.8

* * *

Examples of molecules with documented normalised viability follow.
Test system: BT-474
Assay: normalised viability (% of control), CellTiter-Blue; higher = more viable cells (about 100 = DMSO control)
Conditions: 10000 nM; incubation time: 72 h
Numeric answer only, unit % assumed.

stdin: Item under review: COc1ccc(C2=N[C@@H](c3ccc(Cl)cc3)[C@@H](c3ccc(Cl)cc3)N2C(=O)N2CCNC(=O)C2)c(OC(C)C)c1 [Nutlin-3] . Reported normalised viability?
stdout: 90.3

stdin: // next record C[C@@]1(C(=O)Nc2ccc(F)nc2)CCCN1c1nc(Nc2cc(C3CC3)n[nH]2)c2cccn2n1
stdout: 82

stdin: // next record COC(=O)C[C@](O)(CCCC(C)(C)O)C(=O)O[C@@H]1C(OC)=C[C@]23CCCN2CCc2cc4c(cc2[C@H]13)OCO4 [Omacetaxine mepesuccinate]
stdout: 13.3

stdin: // next record c1ccc(C2CN3CCSC3=N2)cc1 (centres undefined) [Tetramisole]
stdout: 107

* * *

Test system: HCC1143
Test: normalised response (% of control), CellTox Green; higher = less cell death (100 = DMSO, 0 = benzethonium chloride kill control)
Conditions: incubation time: 72 h
QUANTITY: normalised response
Write the numeric value and follow it with the unit.

stdin: Item under review: CC(C)C[C@H](NC(=O)[C@H](Cc1ccccc1)NC(=O)c1cnccn1)B(O)O [Bortezomib] (100 nM) . Reported normalised response?
stdout: 83.5%

stdin: // next record COc1ccc(C2=N[C@@H](c3ccc(Cl)cc3)[C@@H](c3ccc(Cl)cc3)N2C(=O)N2CCNC(=O)C2)c(OC(C)C)c1 [Nutlin-3] (1000 nM)
stdout: 94.2%

stdin: // next record CC(=O)O[C@H]1C(=O)[C@@]2(C)[C@H]([C@H](OC(=O)c3ccccc3)[C@]3(O)C[C@H](OC(=O)[C@H](O)[C@@H](NC(=O)c4ccccc4)c4ccccc4)C(C)=C1C3(C)C)[C@]1(OC(C)=O)CO[C@@H]1C[C@@H]2O [Paclitaxel] (100 nM)
stdout: 99.6%

stdin: // next record FC(F)c1nc2ccccc2n1-c1nc(N2CCOCC2)nc(N2CCOCC2)n1 [ZSTK474] (10000 nM)
stdout: 90.3%

stdin: // next record CCCC(CCC)C(=O)O [Valproic acid] (1000000 nM)
stdout: 111%

stdin: // next record COc1cc(Nc2ncc(F)c(Nc3ccc4c(n3)NC(=O)C(C)(C)O4)n2)cc(OC)c1OC [Tamatinib] (10000 nM)
stdout: 115%

* * *

Tested on: MCF-10A
Experiment: normalised response (% of control), CellTiter-Glo; higher = more viable cells (100 = DMSO, 0 = benzethonium chloride kill control)
Details: incubation time: 72 h
QUANTITY: normalised response (%)
Numeric answer only, unit % assumed.

Reference set (3 entries):
COMPOUND	SYSTEM	normalised response [%]
CC(C)C[C@H](NC(=O)[C@H](Cc1ccccc1)NC(=O)c1cnccn1)B(O)O [Bortezomib] (10 nM)	MCF-10A	113
CN(c1ccccc1CNc1nc(Nc2ccc3c(c2)CC(=O)N3)ncc1C(F)(F)F)S(C)(=O)=O (100 nM)	MCF-10A	86.2
Cn1cnc2c(F)c(Nc3ccc(Br)cc3F)c(C(=O)NOCCO)cc21 [MEK-162] (10 nM)	MCF-10A	70.8

stdin: Item under review: Nc1nccc(-c2c(-c3ccc(F)cc3)ncn2C2CCCCC2)n1 (100 nM) . Reported normalised response?
stdout: 105

* * *

Examples of molecules with documented normalised viability follow.
Test system: MDA-MB-231
Assay: normalised viability (% of control), CellTiter-Blue; higher = more viable cells (about 100 = DMSO control)
Conditions: 100 nM; incubation time: 72 h
Numeric answer only, unit % assumed.

Reference set (3 entries):
MOLECULE	SYSTEM	normalised viability (%)
CS(=O)(=O)OCCCCOS(C)(=O)=O [Busulfan]	MDA-MB-231	94.3
COc1ncc(-c2ccc3nccc(-c4ccnnc4)c3c2)cc1NS(=O)(=O)c1ccc(F)cc1F	MDA-MB-231	41.2
Cn1c(=O)c(F)c(Nc2ccc(I)cc2F)c2c(=O)n(C[C@@H](O)CO)cnc21 [TAK-733]	MDA-MB-231	36.1

stdin: Item under review: Cn1cnc2c(F)c(Nc3ccc(Br)cc3F)c(C(=O)NOCCO)cc21 [MEK-162] . Reported normalised viability?
stdout: 80.3

stdin: // next record CC(=O)O[C@H]1C(=O)[C@@]2(C)[C@H]([C@H](OC(=O)c3ccccc3)[C@]3(O)C[C@H](OC(=O)[C@H](O)[C@@H](NC(=O)c4ccccc4)c4ccccc4)C(C)=C1C3(C)C)[C@]1(OC(C)=O)CO[C@@H]1C[C@@H]2O [Paclitaxel]
stdout: 19.9
